// data source = patent US12502562B2

# Test system: HCMV TB40/E
# ASSAY_EXPLANATION: Receptor-specific siRNA treatment of brain organoids followed by TB40/E infection
# Format: cell-based, Human cytomegalovirus
# MEASUREMENT_CONTEXT: siRNA for 4 days, then GFP-labeled TB40/E, up to 20 days post infection, compared to control siRNA
EXPERIMENTAL_ENDPOINT: growth kinetics of siRNA-treated infected brain organoids

[[record]]
substance = "ITGA3-specific siRNA: siRNA specific for integrin α3, sense SEQ ID NO: 5, antisense SEQ ID NO: 6 (sense GCUACAUGAUUCAGCGCAA; antisense UUGCGCUGAAUCAUGUAGCUG; listed as RNA, chemistry not given here)"
test_result = "similar"

[[record]]
substance = "ITGA5-specific siRNA: siRNA specific for integrin α5 (Dharmacon), sense SEQ ID NO: 7, antisense SEQ ID NO: 8 (sense GGGAACCUCACUUACGGCU; antisense AGCCGUAAGUGAGGUUCCCUU; listed as RNA, chemistry not given here) [reference compound]"
test_result = "similar"


###

# System: HCMV TB40/E
# ASSAY_EXPLANATION: Receptor-specific siRNA treatment of brain organoids followed by TB40/E infection
# Assay type: cell-based, Human cytomegalovirus
# MEASUREMENT_CONTEXT: siRNA for 4 days, then GFP-labeled TB40/E, up to 20 days post infection, compared to control siRNA
EXPERIMENTAL_ENDPOINT: GFP fluorescence of siRNA-treated infected brain organoids

[[record]]
substance = "ITGA3-specific siRNA: siRNA specific for integrin α3, sense SEQ ID NO: 5, antisense SEQ ID NO: 6 (sense GCUACAUGAUUCAGCGCAA; antisense UUGCGCUGAAUCAUGUAGCUG; listed as RNA, chemistry not given here)"
test_result = "similar"

[[record]]
substance = "ITGA5-specific siRNA: siRNA specific for integrin α5 (Dharmacon), sense SEQ ID NO: 7, antisense SEQ ID NO: 8 (sense GGGAACCUCACUUACGGCU; antisense AGCCGUAAGUGAGGUUCCCUU; listed as RNA, chemistry not given here) [reference compound]"
test_result = "similar"

